Form field: inhibition at 10 µg/mL (one value per entry).
System: T lymphocytes (normal mouse spleen cells) stimulated with ConA
Experiment: Mouse Spleen Cell ConA Blastogenesis Assay
Format: cell-based, mouse (C57Bl/6)
Settings: Mus musculus, T-lymphocyte, ConA 1 ug/ml; compound 10 ug/ml; read-out: % change from control, ConA blastogenic response
Express your answer as a number followed by its unit.

Here's what some known entries look like.
- Compound: "CCCCCCCOCCCO[C@@H]1[C@H]2OC(C)(C)O[C@H]2O[C@@H]1[C@H](O)CO"
  inhibition at 10 µg/mL: "-39%"
- Compound: "CCCCCCCCCCCCOC1C(C(O)CO)OC2OC(C)(C)OC21 (centres unmarked)"
  inhibition at 10 µg/mL: "95%"
- Compound: "CCCCCCCO[C@@H]1[C@@H](CO)O[C@@]2(CO)OC(C)(C)O[C@@H]12"
  inhibition at 10 µg/mL: "79%"
- Compound: "CCCCCCCC(=O)O[C@@H]1[C@@H](CO)O[C@@]2(OC)COC(C)(C)O[C@@H]12"
  inhibition at 10 µg/mL: "4%"

Problem: Requested read-out: inhibition at 10 µg/mL. Entry: CCCCCCCC(=O)OC[C@H]1O[C@@]2(OC)COC(C)(C)O[C@H]2[C@@H]1OC(=O)CCCCCCC
Solution: 100%

Problem: Requested read-out: inhibition at 10 µg/mL. Entry: CCCCC/C=C\COC[C@H]1O[C@@]2(OC)COC(C)(C)O[C@H]2[C@@H]1OC/C=C\CCCCC
Solution: 74%

Problem: Requested read-out: inhibition at 10 µg/mL. Entry: CCCCCCCSC[C@H]1OC(C)(C)O[C@@H]2[C@H]3OC(C)(C)O[C@H]3O[C@@H]21
Solution: 29%

Problem: Requested read-out: inhibition at 10 µg/mL. Entry: CCCCCCCC(=O)OC[C@H]1O[C@@]2(OC)COC(C)(C)O[C@H]2[C@@H]1O
Solution: -13%
